assay_procedure: Main phase transition temperature (Tm) and reduced temperature (TR) of microbubble lipids
Type: physicochemical
settings: reduced temperature T/Tm in Kelvin, 25° C.
measurement_type: TR at 25° C.

{"molecule": "CCCCCCCCCCCCCC(=O)OC[C@H](COP(=O)([O-])OCC[N+](C)(C)C)OC(=O)CCCCCCCCCCCCC [C14]", "TR at 25° C.": 1.01}
{"molecule": "CCCCCCCCCCCC(=O)OC[C@H](COP(=O)([O-])OCC[N+](C)(C)C)OC(=O)CCCCCCCCCCC [C12]", "TR at 25° C.": 1.10}
{"molecule": "CCCCCCCCCCCCCCC(=O)OC[C@H](COP(=O)([O-])OCC[N+](C)(C)C)OC(=O)CCCCCCCCCCCCCC [C15]", "TR at 25° C.": 0.97}
{"molecule": "CCCCCCCCCCCCCCCC(=O)OC[C@H](COP(=O)([O-])OCC[N+](C)(C)C)OC(=O)CCCCCCCCCCCCCCC [C16]", "TR at 25° C.": 0.95}
{"molecule": "CCCCCCCCCCCCCCCCCC(=O)OC[C@H](COP(=O)(O)OCCN)OC(=O)CCCCCCCCCCCCCCCCC [C18]", "TR at 25° C.": 0.91}

* * *

assay_procedure: Main phase transition temperature (Tm) and reduced temperature (TR) of microbubble lipids
Format: physicochemical
settings: reduced temperature T/Tm in Kelvin, 37° C.
measurement_type: TR at 37° C.

{"compound": "CCCCCCCCCCCC(=O)OC[C@H](COP(=O)([O-])OCC[N+](C)(C)C)OC(=O)CCCCCCCCCCC [C12]", "measurement_type": "TR at 37° C.", "value_reported": 1.14}
{"compound": "CCCCCCCCCCCCCCCC(=O)OC[C@H](COP(=O)([O-])OCC[N+](C)(C)C)OC(=O)CCCCCCCCCCCCCCC [C16]", "measurement_type": "TR at 37° C.", "value_reported": 0.99}
{"compound": "CCCCCCCCCCCCCC(=O)OC[C@H](COP(=O)([O-])OCC[N+](C)(C)C)OC(=O)CCCCCCCCCCCCC [C14]", "measurement_type": "TR at 37° C.", "value_reported": 1.05}
{"compound": "CCCCCCCCCCCCCCC(=O)OC[C@H](COP(=O)([O-])OCC[N+](C)(C)C)OC(=O)CCCCCCCCCCCCCC [C15]", "measurement_type": "TR at 37° C.", "value_reported": 1.01}
{"compound": "CCCCCCCCCCCCCCCCCC(=O)OC[C@H](COP(=O)(O)OCCN)OC(=O)CCCCCCCCCCCCCCCCC [C18]", "measurement_type": "TR at 37° C.", "value_reported": 0.95}
